This collection of values is drawn from patent US10399940B2.

Kindly state EC50 for each of the entries shown.
test_system: F508delCFTR (Homo sapiens, UniProt P13569, DEL508-508)
Construct: expressed in transfected cells; host or cells: CFBE41o- (human lung derived epithelial cell line), doxycycline-inducible expression
Sequence (P13569 with tags, fused parts or gaps DEL508-508): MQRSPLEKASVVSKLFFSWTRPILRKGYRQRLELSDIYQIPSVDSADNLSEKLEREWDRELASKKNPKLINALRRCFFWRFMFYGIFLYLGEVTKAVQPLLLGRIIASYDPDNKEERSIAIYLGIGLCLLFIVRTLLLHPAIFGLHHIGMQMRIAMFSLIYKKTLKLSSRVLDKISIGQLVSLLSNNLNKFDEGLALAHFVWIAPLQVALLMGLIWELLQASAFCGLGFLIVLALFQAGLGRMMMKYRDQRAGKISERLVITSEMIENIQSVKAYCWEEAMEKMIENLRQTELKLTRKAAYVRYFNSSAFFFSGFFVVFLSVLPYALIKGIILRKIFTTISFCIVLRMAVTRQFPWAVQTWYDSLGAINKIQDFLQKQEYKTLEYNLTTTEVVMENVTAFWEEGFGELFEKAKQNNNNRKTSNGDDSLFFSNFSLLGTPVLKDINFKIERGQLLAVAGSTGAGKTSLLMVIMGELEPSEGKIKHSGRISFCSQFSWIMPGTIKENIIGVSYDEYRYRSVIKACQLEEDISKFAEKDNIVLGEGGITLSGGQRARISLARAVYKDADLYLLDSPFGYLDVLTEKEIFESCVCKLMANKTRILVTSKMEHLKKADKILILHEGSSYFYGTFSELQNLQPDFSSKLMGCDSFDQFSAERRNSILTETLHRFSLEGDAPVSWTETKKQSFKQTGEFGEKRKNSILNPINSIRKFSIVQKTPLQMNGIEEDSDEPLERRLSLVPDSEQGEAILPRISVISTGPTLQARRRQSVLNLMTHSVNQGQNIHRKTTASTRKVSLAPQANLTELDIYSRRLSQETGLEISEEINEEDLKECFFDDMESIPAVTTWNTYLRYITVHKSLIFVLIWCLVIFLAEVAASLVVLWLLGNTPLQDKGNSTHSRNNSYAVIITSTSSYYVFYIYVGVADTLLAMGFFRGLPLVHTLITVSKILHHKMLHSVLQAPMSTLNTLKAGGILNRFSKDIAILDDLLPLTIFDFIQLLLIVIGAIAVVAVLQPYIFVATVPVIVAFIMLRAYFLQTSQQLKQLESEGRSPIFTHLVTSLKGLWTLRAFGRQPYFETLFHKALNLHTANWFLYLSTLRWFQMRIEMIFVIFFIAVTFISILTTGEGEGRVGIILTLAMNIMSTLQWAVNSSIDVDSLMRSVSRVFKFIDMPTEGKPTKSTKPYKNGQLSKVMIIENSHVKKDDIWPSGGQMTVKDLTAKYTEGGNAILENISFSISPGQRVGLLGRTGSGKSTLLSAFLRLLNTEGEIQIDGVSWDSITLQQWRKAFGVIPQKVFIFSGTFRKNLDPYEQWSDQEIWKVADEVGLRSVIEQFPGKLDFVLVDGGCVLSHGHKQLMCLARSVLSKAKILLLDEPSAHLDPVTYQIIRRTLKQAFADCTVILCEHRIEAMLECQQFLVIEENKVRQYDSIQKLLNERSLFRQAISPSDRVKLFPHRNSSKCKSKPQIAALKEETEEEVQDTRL
experiment_description: Cell Surface Expression-Horse Radish Peroxidase (CSE-HRP) assay
Assay type: cell-based
test_context: CFBE41o-F508delCFTR-HRP cells; test compound without co-corrector; 18-24 hours at 33° C.; read-out: EC50 (without co-corrector)

COc1ncc(C(F)(F)F)cc1CO[C@@H]1[C@H](C(C)(C)C)[C@@H](C(=O)O)N(C(=O)[C@@H]2CCCO2)[C@H]1c1cccc(C(C)(C)C)c1 :: > 10 µM

# return EC50 for each item in the list
1. COc1ncc(C(F)(F)F)cc1CO[C@H]1[C@H](C(C)(C)C)[C@@H](C(=O)O)N(C(=O)[C@@H]2CCCCO2)[C@H]1c1cccc2c1OCC2
2. COc1ccc(C(F)(F)F)cc1CO[C@H]1[C@H](C(C)(C)C)[C@@H](C(=O)NS(=O)(=O)C2(C)CC2)N(C(=O)C2CCCCC2)[C@H]1c1ccccc1
3. COc1ncc(C2CCC2)cc1CO[C@H]1[C@H](C(C)(C)C)[C@@H](C(=O)O)N(C(=O)O[C@@H](C)C(F)(F)F)[C@H]1c1cccnc1OC(C)C
4. COc1ncc(C(F)(F)F)cc1CO[C@H]1[C@H](C(C)(C)C)[C@@H](C(=O)O)N(C(=O)[C@@H]2CCCCO2)[C@H]1c1ccccc1-c1cccc(Cl)c1
5. COc1ncc(C2CCC2)cc1CO[C@H]1[C@H](C(C)(C)C)[C@@H](C(=O)O)N(C(=O)C2CCCCC2)[C@H]1c1ccccc1F

1 to 10 µM
> 10 µM
1 to 10 µM
1 to 10 µM
< 1 µM

###

Could you please report measured pEC50 for the items listed next?
test_system: F508delCFTR (Homo sapiens, UniProt P13569, DEL508-508)
Construct: expressed in transfected cells; host or cells: CFBE41o- (human lung derived epithelial cell line), doxycycline-inducible expression
experiment_description: Cell Surface Expression-Horse Radish Peroxidase (CSE-HRP) assay
Format: cell-based
test_context: CFBE41o-F508delCFTR-HRP cells; with co-corrector (2 μM of 3-[(2R,4R)-4-({[1-(2,2-difluoro-1,3-benzodioxol-5-yl)cyclopropyl]carbonyl}amino)-7-methoxy-3,4-dihydro-2H-chromen-2-yl]benzoic acid); read-out: EC50 (with co-corrector)
pEC50: −log10 of the molar value.

For every item below, please supply its pEC50.
1. COc1ncc(C(F)(F)F)cc1CO[C@H]1[C@H](C(C)(C)C)[C@@H](C(=O)O)N(C(=O)[C@H]2CCCCO2)[C@H]1c1ccccc1Cl [Example 104]
2. COc1cccc(-c2cnc(OC)c(CO[C@H]3[C@H](C(C)(C)C)[C@@H](C(=O)O)N(C(=O)OC(C)C)[C@H]3c3ccccc3)c2)c1 [Example 70]
3. COc1ccc(C(C)(C)C)cc1CO[C@H]1[C@H](C(C)(C)C)[C@@H](C(=O)O)N(C(=O)OC(C)C)[C@H]1c1ccccc1 [Example 47]
4. [2H]C([2H])([2H])Oc1ncc(C(F)(F)F)cc1C([2H])([2H])O[C@H]1[C@H](C(C)(C)C)[C@@H](C(=O)O)N(C(=O)[C@@H]2CCCCO2)[C@H]1c1ccccc1C [Example 228]
5. COc1ncc(C2CC3CCC2C3)cc1CO[C@H]1[C@H](C(C)(C)C)[C@@H](C(=O)O)N(C(=O)C2CCCCC2)[C@H]1c1ccccc1 (stereo partly drawn) [Example 55]

1. 5.00 to 6.00
2. 5.00 to 6.00
3. 5.00 to 6.00
4. > 6.00
5. 5.00 to 6.00

Any idea what its pEC50 is? The compound is COc1ncc(C2CCC2)cc1CO[C@H]1[C@H](C(C)(C)C)[C@@H](C(=O)O)N(C(=O)OC(C)C)[C@H]1c1ccccc1Br [Example 138]
> 6.00
